Quick reference for Bliss excess among some molecules
System: NOMO-1 (Acute Myeloid Leukemia)
Experiment: Bliss excess, mean over the matrix (fraction); higher = more synergy;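 further: after 72 h of two-drug dosing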

For reference, reported Bliss excess for CC1(C)CCC(CN2CCN(c3ccc(C(=O)NS(=O)(=O)c4ccc(NCC5CCOCC5)c([N+](=O)[O-])c4)c(Oc4cnc5[nH]ccc5c4)c3)CC2)=C(c2ccc(Cl)cc2)C1 [Venetoclax] + C=CCn1c(=O)c2cnc(Nc3ccc(N4CCN(C)CC4)cc3)nc2n1-c1cccc(C(C)(C)O)n1 [AZD1775] (first compound max 1 µM, partner max 1 µM) stands at 0.0689

For reference, reported Bliss excess for Cc1c2c(nn1C)CSCc1cc(n(C)n1)CSc1cc(c3ccccc3c1)OCCCc1c(C(=O)O)n(C)c3c-2c(Cl)ccc13 [AZD5991] + C=CCn1c(=O)c2cnc(Nc3ccc(N4CCN(C)CC4)cc3)nc2n1-c1cccc(C(C)(C)O)n1 [AZD1775] (first compound max 1 µM, partner max 1 µM) stands at -0.01

* * *

Test system: NCI-H1688 (Small Cell Lung Carcinoma)
Assay: Bliss excess, mean over the matrix (fraction); higher = more synergy
Quick reference for Bliss excess among some molecules
// return just the number, without any unit appended

{"Molecule": "Cc1c2c(nn1C)CSCc1cc(n(C)n1)CSc1cc(c3ccccc3c1)OCCCc1c(C(=O)O)n(C)c3c-2c(Cl)ccc13 [AZD5991] + CCN(CCO)CCCOc1ccc2c(Nc3cc(CC(=O)Nc4cccc(F)c4)[nH]n3)ncnc2c1 [AZD2811] (first compound max 1 µM, 7x7, partner max 1 µM)", "Bliss excess": 0.0059}

For reference, reported Bliss excess for CN(CCO)CC[C@H](CSc1ccccc1)Nc1ccc(S(=O)(=O)NC(=O)c2ccc(N3CCC([C@@H](O)c4ccccc4-c4ccc(Cl)cc4)CC3)cc2)cc1S(=O)(=O)C(F)(F)F [AZD4320] + Cn1cnc2c(F)c(Nc3ccc(Br)cc3Cl)c(C(=O)NOCCO)cc21 [Selumetinib] (first compound max 1 µM, 7x7, partner max 3 µM) stands at 0.0285

* * *

Test system: TC-YIK (Other Solid Carcinomas)
Experiment: Bliss excess, mean over the matrix (fraction); higher = more synergy
Mark class 0 for Bliss excess values under 0.003, and class 1 for everything at or above.

{"Compound": "Cc1nc(-c2cn3c(n2)-c2ccc(-c4cnn(C(C)(C)C(N)=O)c4)cc2OCC3)n(C(C)C)n1 [Taselisib] + O=C(Nc1ccc2[nH]nc(-c3ccncc3)c2c1)[C@@H]1CCN(CC(=O)N2CCN(c3ccc(-c4ncccn4)cc3)CC2)C1 [SCH772984] (first compound max 10 µM, 7x7, partner max 5 µM)", "System": "TC-YIK (Other Solid Carcinomas)", "Qualitative Label": "class 1"}

q: Dear colleague, could you confirm whether Cc1c2c(nn1C)CSCc1cc(n(C)n1)CSc1cc(c3ccccc3c1)OCCCc1c(C(=O)O)n(C)c3c-2c(Cl)ccc13 [AZD5991] + CC(=O)O[C@H]1C(=O)[C@@]2(C)[C@H]([C@H](OC(=O)c3ccccc3)[C@]3(O)C[C@H](OC(=O)[C@H](O)[C@@H](NC(=O)c4ccccc4)c4ccccc4)C(C)=C1C3(C)C)[C@]1(OC(C)=O)CO[C@@H]1C[C@@H]2O [Paclitaxel] (first compound max 1 µM, 7x7, partner max 3 µM) has Bliss excess at or above 0.003?
a: class 0

q: Dear colleague, could you confirm whether CN(CCO)CC[C@H](CSc1ccccc1)Nc1ccc(S(=O)(=O)NC(=O)c2ccc(N3CCC([C@@H](O)c4ccccc4-c4ccc(Cl)cc4)CC3)cc2)cc1S(=O)(=O)C(F)(F)F [AZD4320] + CC(=O)O[C@H]1C(=O)[C@@]2(C)[C@H]([C@H](OC(=O)c3ccccc3)[C@]3(O)C[C@H](OC(=O)[C@H](O)[C@@H](NC(=O)c4ccccc4)c4ccccc4)C(C)=C1C3(C)C)[C@]1(OC(C)=O)CO[C@@H]1C[C@@H]2O [Paclitaxel] (first compound max 1 µM, 7x7, partner max 3 µM) has Bliss excess at or above 0.003?
a: class 1

q: Dear colleague, could you confirm whether CC(=O)c1c(C)c2cnc(Nc3ccc(N4CCNCC4)cn3)nc2n(C2CCCC2)c1=O [Palbociclib] + CC1(C)CCC(CN2CCN(c3ccc(C(=O)NS(=O)(=O)c4ccc(NCC5CCOCC5)c([N+](=O)[O-])c4)c(Oc4cnc5[nH]ccc5c4)c3)CC2)=C(c2ccc(Cl)cc2)C1 [Venetoclax] (first compound max 10 µM, 7x7, partner max 1 µM) has Bliss excess at or above 0.003?
a: class 0

q: Dear colleague, could you confirm whether CC(=O)c1c(C)c2cnc(Nc3ccc(N4CCNCC4)cn3)nc2n(C2CCCC2)c1=O [Palbociclib] + Cn1cnc2c(F)c(Nc3ccc(Br)cc3Cl)c(C(=O)NOCCO)cc21 [Selumetinib] (first compound max 10 µM, 7x7, partner max 10 µM) has Bliss excess at or above 0.003?
a: class 0
